Kindly supply the reported IC50 values for the records listed here.
# assaySystem: UniProtKB Q96EB6
# Sequence (Q96EB6 133-747): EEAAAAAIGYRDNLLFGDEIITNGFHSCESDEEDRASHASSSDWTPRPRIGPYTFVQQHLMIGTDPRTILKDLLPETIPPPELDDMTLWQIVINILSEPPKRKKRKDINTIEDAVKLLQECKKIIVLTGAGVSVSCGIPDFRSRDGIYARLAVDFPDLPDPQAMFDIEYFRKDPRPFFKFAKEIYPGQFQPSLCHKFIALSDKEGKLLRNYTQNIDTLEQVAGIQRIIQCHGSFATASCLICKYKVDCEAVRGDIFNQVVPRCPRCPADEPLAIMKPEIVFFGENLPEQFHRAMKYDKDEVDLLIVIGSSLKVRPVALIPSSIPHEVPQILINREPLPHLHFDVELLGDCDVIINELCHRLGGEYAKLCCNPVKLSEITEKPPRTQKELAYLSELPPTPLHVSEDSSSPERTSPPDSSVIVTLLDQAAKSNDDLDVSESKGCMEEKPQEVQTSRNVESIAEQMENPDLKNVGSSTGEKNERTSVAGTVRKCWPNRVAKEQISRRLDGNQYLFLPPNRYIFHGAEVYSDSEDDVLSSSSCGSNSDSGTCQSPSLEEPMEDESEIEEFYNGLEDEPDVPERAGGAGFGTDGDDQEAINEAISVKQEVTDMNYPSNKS
State the answer as a number, implicitly in µM.

q: Consider the compound `COc1cc(O)c(C(=O)/C=C/c2ccc(O)cc2)cc1Oc1ccc(C(=O)/C=C/c2ccc(O)cc2O)c(O)c1` and give its recorded IC50.
a: 40.8

q: Consider the compound `COc1cc(O)c(C(=O)/C=C/c2ccc(O)cc2)cc1Oc1ccc(C(=O)/C=C/c2ccc(O)cc2)c(O)c1` and give its recorded IC50.
a: 46.7
